test: Toxicity liver stage against HepG2, at 10uM; format: cell-based; set-up: test concentration 10 uM, cell line HepG2-A16-CD81EGFP; settings: human, HepG2-A16-CD81EGFP cells; read-out: INHIBITION
quantity_kind: cytotoxicity at 10 µM (%)

CCc1nsc(N2CCN(C(=O)c3ccnc(N(C)C)c3)CC2)n1
-2.48
CCOc1ccc(CN2CCN(C(=O)c3ccc(C)n3C)CC2)cc1
19.2
c1cncc(-c2c[nH]c([C@@H]3COCCN3Cc3ccncc3)n2)c1
3.25
Cc1nc2[nH]cnc(Nc3ccn(C)n3)c-2n1
18.2
Cc1ccc(-c2noc(CN3CCC(N4CCNC4=O)CC3)n2)cc1
31
CCn1cc(S(=O)(=O)N2CCCCCC2c2cc(C)no2)cn1 (centres undefined)
8.24
O=C(c1ccncc1)N1CCn2c(nnc2-c2ccccc2)C1
4.45
O=C(c1ccccn1)N1CC(S(=O)(=O)c2ccc(Cl)cc2)C1
-12
CNC(=O)CN(C)C(=O)c1cc2ccccc2cc1OC
17.1
CCC[C@@H]1CN(C(=O)c2cnc3ccccc3c2)C[C@H]1NS(C)(=O)=O
-11.1
O=C(NC(c1ccccc1)c1cccnc1)C1CC1 (centres undefined)
2.99
Cn1cc(N2C[C@@H]3CN(CC4CCOCC4)C[C@@H]3C2=O)cn1
11.1
O=C(NCCCn1cccn1)C1CCC(=O)N(Cc2ccccc2F)C1 (centres undefined)
-3.75
Cc1cc(S(=O)(=O)NCc2cccc(C(=O)N3CCCC3)c2)c(C)s1
3.13
CS(=O)(=O)N1CCc2c(nnn2CC2CC2)C1COCC1CC1 (centres undefined)
-3.15
Cc1nn(C)c(N2CCOCC2)c1CNC(c1ccccc1)C1CC1 (centres undefined)
4.45
CCC(NC(=O)C(C)(C)C)c1ccccc1C (centres undefined)
2.3
O=C(Cn1cc(-c2ccccc2)ncc1=O)Nc1nc(C2CC2)n[nH]1
6.2
Cn1cccc1C(=O)N1CC[C@@]2(O)CCN(S(C)(=O)=O)C[C@H]2C1
-10.7
CC(O)c1cn(CC2CCN(C(=O)CN(C)C(C)C)CC2)nn1 (centres undefined)
-1.58
CCc1cnc(CCNS(C)(=O)=O)s1
2.17
O=C(c1ccc(O)cn1)N1CCOC(Cc2cccc(C(F)(F)F)c2)C1 (centres undefined)
5.08
COc1cc(C(=O)NCC2CCCN(Cc3ccco3)C2)ccn1 (centres undefined)
-3.94
CCNc1ccnc(NC2CCN(CC(N)=O)CC2)n1
-15.7
